- TARGET_ENTITY: T1, VEGF (human, UniProt P15692-4 27-191, limits assumed)
- T1 construct: Biotinylated in the KDR-IgG ELISA, amine-coupled to the chip in BIAcore; also called biotinylated VEGF; vascular endothelial growth factor
- RUN_DESCRIPTION: competitive phage-ELISA, relative to pY0192
READOUT_LABEL: IC50 (mut)/IC50 (wt)

// below: answered binders
pY0192 VH G26A (Fab, V domains shown, Ala-scan variant of pY0192; Fab on phage) VH: EVQLVESGGGLVQPGGSLRLSCAASAYTFTNYGINWVRQAPGKGLEWVGWINTYTGEPTYAADFKRRFTFSLDTSKSTAYLQMNSLRAEDTAVYYCAKYPHYYGSSHWYFDVWGQGTL VL: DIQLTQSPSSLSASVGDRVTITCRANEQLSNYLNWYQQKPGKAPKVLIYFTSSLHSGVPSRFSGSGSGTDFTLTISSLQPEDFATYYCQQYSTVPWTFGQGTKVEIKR : 2 ratio
pY0192 VH W50A (Fab, V domains shown) VH: EVQLVESGGGLVQPGGSLRLSCAASGYTFTNYGINWVRQAPGKGLEWVGAINTYTGEPTYAADFKRRFTFSLDTSKSTAYLQMNSLRAEDTAVYYCAKYPHYYGSSHWYFDVWGQGTL VL: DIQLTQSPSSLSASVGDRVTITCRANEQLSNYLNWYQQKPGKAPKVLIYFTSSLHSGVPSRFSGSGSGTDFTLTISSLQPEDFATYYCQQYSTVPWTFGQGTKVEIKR : > 150
pY0192 VH G104A (Fab, V domains shown, Ala-scan variant of pY0192; Fab on phage) VH: EVQLVESGGGLVQPGGSLRLSCAASGYTFTNYGINWVRQAPGKGLEWVGWINTYTGEPTYAADFKRRFTFSLDTSKSTAYLQMNSLRAEDTAVYYCAKYPHYYASSHWYFDVWGQGTL VL: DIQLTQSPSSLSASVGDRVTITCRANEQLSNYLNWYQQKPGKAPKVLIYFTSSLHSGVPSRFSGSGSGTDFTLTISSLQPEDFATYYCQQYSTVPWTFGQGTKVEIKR : 2 ratio
pY0192 VL V94A (Fab, V domains shown, Ala-scan variant of pY0192; Fab on phage) VH: EVQLVESGGGLVQPGGSLRLSCAASGYTFTNYGINWVRQAPGKGLEWVGWINTYTGEPTYAADFKRRFTFSLDTSKSTAYLQMNSLRAEDTAVYYCAKYPHYYGSSHWYFDVWGQGTL VL: DIQLTQSPSSLSASVGDRVTITCRANEQLSNYLNWYQQKPGKAPKVLIYFTSSLHSGVPSRFSGSGSGTDFTLTISSLQPEDFATYYCQQYSTAPWTFGQGTKVEIKR : 2 ratio

**Q:** Requested field: IC50 (mut)/IC50 (wt). Item: pY0192 VL W96A (Fab, V domains shown) VH: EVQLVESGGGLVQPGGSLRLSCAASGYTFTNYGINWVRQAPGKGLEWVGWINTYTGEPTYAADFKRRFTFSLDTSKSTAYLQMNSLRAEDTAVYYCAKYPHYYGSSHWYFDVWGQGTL VL: DIQLTQSPSSLSASVGDRVTITCRANEQLSNYLNWYQQKPGKAPKVLIYFTSSLHSGVPSRFSGSGSGTDFTLTISSLQPEDFATYYCQQYSTVPATFGQGTKVEIKR
**A:** > 150
